assay: resazurin metabolic signal in A549 cells – cell-based, resazurin fluorescence, 24 h, PK04 Diversity Set, profiling panel (AID 1171); settings: A549 viability, higher = more signal, called active from +8 up or from −8 down; further: test concentration not given here
Quantity: z-score
Please reply with the value in numeric form only.

Endpoint output: z-score of COc1ccc([Si](C)(C)[C@@H]2[C@@H](CCO)O[C@]3(C(=O)N(Cc4cccc(NC(=O)[C@H](C)O)c4)c4ccccc43)[C@H]2C)cc1 . Value? -5.11

Which measured z-score value corresponds to [N-]=[N+]=Nc1ccccc1C[C@]1(C(=O)NCCN2CCOCC2)COC(c2ccc(OCCCO)cc2)=N1 ? 0.887

For CCOC(=O)C[C@H]1[C@H](OC(=O)c2ccc(C(=O)c3ccccc3)cc2)[C@@H](NC(=O)c2ccc3ccccc3n2)c2cc(OCCCO)ccc2N1C(=O)Cc1ccc(OC)cc1 , what is its reported z-score? 0.0291

Endpoint output: z-score of O[C@@H](Cc1ccccc1)[C@@H](/C=C/C1CC1)N(CC#Cc1ccccc1)Cc1ccccc1Br . Value? 1.62

I am curious: what z-score value has been reported for C=C[C@@H](OC)[C@H](OC(=O)Nc1ccc(OC)cc1)c1ccc(O)c(F)c1 ? -0.0973

If you can, please state the reported z-score value of O=C1C2C=CC(C(O)c3cccc(O)c3)N(Nc3ccc([N+](=O)[O-])cc3)C2C(=O)N1c1ccccc1 (centres undefined) . 0.014

What measured z-score goes with C=C(/C(=C/C[C@H](OC(C)=O)c1ccc(CO)o1)c1cnc2ccccc2c1)C(C)C ? 0.643

Fill in the blank: the reported z-score of NC(=O)NCC#Cc1ccc2c(c1)[C@]1(C(=O)N2)[C@H](c2ccccc2OCCO)N2[C@H](c3ccccc3)[C@H](c3ccccc3)OC(=O)[C@H]2[C@@H]1C(=O)O is ____. 1.73

Fill in: z-score of CCOC(=O)C1=C[C@@H](c2ccccc2)N(S(=O)(=O)c2ccc(C)cc2)[C@H]1c1ccc(OC)cc1 is ___ 1.63

Form field: reported z-score of CCOC(=O)C1=C[C@@H](C(C)(C)C)N(S(=O)(=O)c2ccc(C)cc2)[C@H]1c1cccc2ccccc12 0.828

Item CCOC(=O)C[C@H]1[C@H](OC(=O)Cc2ccc3c(c2)OCO3)[C@@H](NC(=O)c2ccc3ccccc3n2)c2cc(OCCCO)ccc2N1C(=O)c1ccc2ccccc2n1 has what recorded z-score? -0.387

What does the data say about its z-score? Entry: O=C1OCCC=C[C@H]2OC34C=CCN(Cn5nnc6ccccc65)C(=O)[C@H]3N(CCCO)C(=O)[C@@H]4C12 (some centres undefined) -0.618

Bench note: what z-score did CN(C)CCCCCCNC(=O)[C@@H]1C[C@@H]2C(=O)N3CCC[C@H]3C(=O)N2[C@@H]1c1cccc(OCCO)c1 show? -0.954

Fill in: z-score of CC[C@@H]1C=C(C(=O)O)[C@H](c2ccccc2)N1S(=O)(=O)c1ccc(C)cc1 is ___ -0.687

For NCCCCCCNC(=O)[C@@H]1C[C@@H]2C(=O)N[C@@H](CCCCN)C(=O)N2[C@@H]1c1ccc(O)cc1 , what is its reported z-score? -0.71

Given CCCC=C(CCC)[C@@H](NC(=O)c1cccs1)c1ccc(C(=O)OC)cc1 , state its recorded z-score. 0.902

Name the recorded z-score for [N-]=[N+]=Nc1ccccc1C[C@@]1(C(=O)N2CCOCC2)N=C(c2ccc(OCCCO)cc2)O[C@@H]1c1ccccc1 . -1.07

// lookup z-score for COCCOC(=O)N1C(=O)[C@@]2(c3cc(C#CCCO)ccc31)[C@H](C(=O)Nc1nc3ccccc3s1)[C@H]1C(=O)O[C@H](c3ccccc3)[C@H](c3ccccc3)N1[C@@H]2c1ccc(O)cc1 0.771

So what's the measured z-score for this one? CCOC(=O)C[C@H]1[C@H](OC(=O)c2ccc(C(=O)c3ccccc3)cc2)[C@@H](NC(=O)CC(C)C)c2cc(OCCCO)ccc2N1C(=O)c1ccccc1 0.256

Look up z-score for this compound: Cc1ccc(S[C@]2(C(=O)NCC(F)(F)F)CC(=O)N(Cc3cc(C(F)(F)F)cc(C(F)(F)F)c3)[C@@H]2c2ccc(CO)cc2I)cc1 1.19

What measured z-score goes with COC(=O)C1=CC(CCCO)=CC(c2cccs2)N(Cc2cccc(OC(F)(F)F)c2)C=C1C(=O)OC (centres undefined) ? -0.257

Item CCCC[C@@H]1C[C@H]1[C@@H](NC(=O)c1cccs1)c1ccccc1C(F)(F)F has what recorded z-score? -0.462

Reported z-score for CCCC=C(CCC)[C@@H](NS(=O)(=O)CC12CCC(CC1=O)C2(C)C)c1ccc(C(=O)OC)cc1 (some centres undefined) : what is it? 0.252

Which z-score reading was recorded for the compound [N-]=[N+]=Nc1ccccc1[C@@H]1OC(c2ccc(OCCCO)cc2)=N[C@]1(Cc1ccccc1)C(=O)N1CCCCC1 ? -1.61

---

system: glycogen synthase kinase-3 (GSK3A per assay name; protocol says GSK3B); experiment: compounds binding glycogen synthase kinase-3 – biochemical, small-molecule microarray, 635 nm fluorescence, GSK3A, primary screen (AID 1103); details: fluorescence 635 nm, higher = more signal; further: the record names both GSK3A and GSK3B
Provide the recorded composite z-score for the entries that follow.
// keep it numeric: no unit symbol after the value

Request - read-out composite z-score | tested on glycogen synthase kinase-3 (GSK3A per assay name; protocol says GSK3B) | molecule C=CCNC(=O)[C@@H]1[C@H]2C(=O)O[C@H](c3ccccc3)[C@H](c3ccccc3)N2[C@H](c2ccccc2OCCO)[C@@]12C(=O)Nc1ccc(C#CCCO)cc12 0.773

Lookup: composite z-score / glycogen synthase kinase-3 (GSK3A per assay name; protocol says GSK3B) / CC(C)N1CC=CC23O[C@@H]4C=CCCOC(=O)C4[C@H]2C(=O)N(CCCO)[C@@H]3C1=O (stereo partly drawn) -0.322

// lookup composite z-score | system=glycogen synthase kinase-3 (GSK3A per assay name; protocol says GSK3B) | key= CC(C)C(CO)N1C(=O)[C@@H]2C3C(=O)OCCC/C=C\[C@H]3OC23C=CCN(Cn2nnc4ccccc42)C(=O)[C@@H]13 (stereo partly drawn) -0.2

---

experiment: JC-1 mitochondrial signal, unstimulated HepG2 cells – cell-based, JC-1 fluorescence, 24 h, 100 nL compound, profiling panel (AID 1167); details: HepG2 mitochondrial potential, higher = more signal; further: test concentration not given here
Quantity: z-score
Lab note: jot the number down without any unit.

Record request: z-score value, item COC(=O)[C@]1(CCS(=O)(=O)c2ccccc2)N=C(c2ccc(OCCCO)cc2)O[C@@H]1c1ccccc1N=[N+]=[N-] 0.811

Endpoint output: z-score of C=CCC(OC(C)=O)[C@@H]1[C@@H](N(Cc2ccc(-c3cccc(C(F)(F)F)c3)o2)C(=O)c2ccc(-c3ccccc3)cc2)c2cc(OCCCO)ccc2N1C(=O)Cc1ccc2ccccc2c1 (stereo partly specified) . Value? 1.66

Please look up its z-score: C=CCC(OC(C)=O)[C@@H]1[C@@H](N(Cc2ccc(-c3cccc(C(F)(F)F)c3)o2)C(=O)Cc2ccc(OC)cc2)c2cc(OCCCO)ccc2N1C(=O)c1ccc(-c2ccccc2)cc1 (stereo partly specified) 3.55

What measured z-score goes with CC(C)N1CC=CC23O[C@@H]4C=CCCOC(=O)C4[C@H]2C(=O)N(CCCO)[C@@H]3C1=O (stereo partly specified) ? -0.568

Recorded z-score of Cc1ccc(S[C@]2(C(=O)NCC(F)(F)F)CC(=O)N(Cc3cc(C(F)(F)F)cc(C(F)(F)F)c3)[C@@H]2c2ccc(CO)cc2I)cc1 , please. -0.812

Which z-score reading was recorded for the molecule Cc1ccccc1C(O)C1C=CC2C(=O)NC(=O)C2N1Nc1ccccn1 (stereo unspecified) ? -0.831

Request the reported z-score associated with CCCNC(=O)[C@@]1(Sc2ccc(C)cc2)CC(=O)N(C2Cc3ccccc3C2)[C@@H]1c1ccc(CO)cc1I -0.574

Consider the molecule shown here: NC(=O)NCC#Cc1ccc2c(c1)[C@]1(C(=O)N2)[C@H](c2ccccc2OCCO)N2[C@H](c3ccccc3)[C@H](c3ccccc3)OC(=O)[C@H]2[C@@H]1C(=O)O What is its recorded z-score? -0.716

Field request: z-score | item: COc1ccc(CCNC(=O)[C@@]2(Cc3ccccc3I)c3ccccc3C(=O)N(C3CCCCC3)[C@H]2c2ccc(CO)cc2)cc1 2.5

Recorded z-score for CCCNC(=O)[C@@]1(C)c2ccccc2C(=O)N(c2ccc(C)cn2)[C@H]1c1ccc(CO)cc1 , please? 0.204

For the molecule COCCOC(=O)N1C(=O)[C@@]2(c3cc(C#CC4(O)CCCCCC4)ccc31)[C@H](c1ccc(O)cc1)N1[C@H](c3ccccc3)[C@H](c3ccccc3)OC(=O)[C@H]1[C@@H]2C(=O)N1CCN(c2ncccn2)CC1 , what z-score is on record? -0.81

---

test: ATP-based viability of Huh7 replicon cells – cell-based, CellTiter-Glo luminescence, basal, 48 h, cytotoxicity control for HCV replication inhibitor project, primary screen (AID 1143); conditions: higher = more signal, called active from +8 up or from −8 down;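 further: Huh7 hepatoma cells carrying a hepatitis C replication reporter with no stimulus; test concentration not given here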
Active and inactive are the calls of the source.
Quantity: z-score

Which z-score reading was recorded for the compound CCCCC(O)C1C=CC2C(=O)N(C)C(=O)C2N1N(c1ccccc1)c1ccccc1 (stereo not given) ? -0.975 (inactive)

Which z-score reading was recorded for the compound COC(=O)[C@@]1(Cc2ccccc2)[C@H]2c3cc(C(=O)N4CCCC4)n(CCc4ccccn4)c3C[C@H]2CN1C(=O)c1ccccc1 ? -0.917 (inactive)

Suppose we examine the compound CC(C)N1C(=O)C[C@@](C(=O)NC2CC2)(c2ccc([N+](=O)[O-])cc2)[C@H]1c1ccc(CO)cc1 ; what z-score value has been reported? -4.5 (inactive)

Given CN(C)c1ccc(C(O)C2C=CC3C(=O)NC(=O)C3N2Nc2ccccn2)cc1 (stereo not given) , state its recorded z-score. 1 (inactive)

Record request: z-score value, item COCC(=C=CC[C@H](O)c1ccc(CO)o1)CCO -0.25 (inactive)
